- Method description: Drug metabolism test (pharmacokinetics, oral, mice)
- Format: in vivo, ICR mice
- Condition description: male, ICR, mouse, po, orally (intragastric), 10 mg/kg, plasma
Property label: AUC(0-t)

| Molecule | AUC(0-t) |
| --- | --- |
| N#CC1(c2ccc(OC(F)(F)F)cc2)CCN(c2ccc(CN[C@@H]3COc4nc([N+](=O)[O-])cn4C3)cn2)CC1 | 28800 ng·h/mL |
| CC1CN(c2ccc(OC(F)(F)F)cc2)CCN1c1ncc(CN[C@@H]2COc3nc([N+](=O)[O-])cn3C2)cn1 (stereo partly drawn) | 21500 ng·h/mL |
| O=[N+]([O-])c1cn2c(n1)OC[C@@H](NCc1cnc(N3CCN(c4ccc(OC(F)(F)F)cc4)CC3)nc1)C2 | 16000 ng·h/mL |
| Cc1nc(N2CCN(c3ccc(OC(F)(F)F)cc3)CC2)ncc1CN[C@@H]1COc2nc([N+](=O)[O-])cn2C1 | 16100 ng·h/mL |
| O=[N+]([O-])c1cn2c(n1)OC[C@@H](NCc1ccc(N3CCC(Oc4ccc(OC(F)(F)F)cc4)CC3)nc1)C2 | 31300 ng·h/mL |
| O=[N+]([O-])c1cn2c(n1)OC[C@@H](NCc1cnc(N3CCN(c4ccc(C(F)(F)F)cc4)CC3)nc1)C2 | 22400 ng·h/mL |

-- ask Which value of AUC(0-t) has been reported for CC1CN(c2ncc(CN[C@@H]3COc4nc([N+](=O)[O-])cn4C3)cn2)CCN1c1ccc(OC(F)(F)F)cc1 (stereo partly drawn) in the records?
-- reply 16300 ng·h/mL

-- ask Please give the measured AUC(0-t) for this molecule: `N#CC1(c2ccc(OC(F)(F)F)cc2)CCN(c2ncc(CN[C@@H]3COc4nc([N+](=O)[O-])cn4C3)cn2)CC1`
-- reply 18200 ng·h/mL

-- ask Form field: reported AUC(0-t) of `O=[N+]([O-])c1cn2c(n1)OC[C@@H](NCc1ccc(N3CCN(c4ccc(OC(F)(F)F)cc4)CC3)nc1)C2`
-- reply 17200 ng·h/mL

----------
- Method description: Drug metabolism test (pharmacokinetics, oral, mice)
- Assay type: in vivo, ICR mice
- Condition description: male, ICR, mouse, po, orally (intragastric), 10 mg/kg, plasma
In this section, each of the molecules is paired with its reported Cmax.
Reply with just the number (in ng/mL).

| Molecule | Cmax / ng/mL |
| --- | --- |
| O=[N+]([O-])c1cn2c(n1)OC[C@@H](NCc1ccc(N3CCC(Oc4ccc(OC(F)(F)F)cc4)CC3)nc1)C2 [Compound 1] | 2670 |
| CC1CN(c2ncc(CN[C@@H]3COc4nc([N+](=O)[O-])cn4C3)cn2)CCN1c1ccc(OC(F)(F)F)cc1 (stereo partly shown) [Compound 19] | 1780 |

-- ask Consider the molecule shown here: CC1CN(c2ccc(OC(F)(F)F)cc2)CCN1c1ncc(CN[C@@H]2COc3nc([N+](=O)[O-])cn3C2)cn1 (stereo partly shown) [Compound 20] What is its recorded Cmax?
-- reply 2100

-- ask Reported Cmax, molecule N#CC1(c2ccc(OC(F)(F)F)cc2)CCN(c2ncc(CN[C@@H]3COc4nc([N+](=O)[O-])cn4C3)cn2)CC1 [Compound 24] : ____
-- reply 1980

Where do the numbers come from? From patent US20170334927A1.
